- Test system: SK-MEL-28
- details: read-out: Median Lethal Concentration (LC50); Melanoma, SK-MEL-28; 48 hours, SRB assay
quantity_kind: CC50 (µM)
Please give a number only; it is taken to be in µM.

Task: Would you mind telling me what CC50 value was observed for O=C1C(=Cc2ccccc2O)COCC1=Cc1ccccc1O [EF25] ?
Result: 6.6

---

The entries below are paired with their reported CC50.
- Tested on: NCI/ADR-RES
- protocol_summary: cells
- details: Homo sapiens, 48 h, read-out: Median Lethal Concentration (LC50)

Look over these answered cases.
[
  {
    "compound": "O=C1C(=Cc2ccccc2O)CCCC1=Cc1ccccc1O",
    "target": "NCI/ADR-RES",
    "CC50": "> 100 µM"
  },
  {
    "compound": "CC1(/C=C/c2ccccc2O)C=Cc2ccccc2O1 (stereo not drawn)",
    "target": "NCI/ADR-RES",
    "CC50": "> 100 µM"
  },
  {
    "compound": "CC(=O)O.O=C1C(=Cc2ccccc2F)CNCC1=Cc1ccccc1F",
    "target": "NCI/ADR-RES",
    "CC50": "60.6 µM"
  }
]

Task: Would you mind telling me what CC50 value was observed for OC(CCc1ccc(F)cc1F)CCc1ccc(F)cc1F ?
Result: > 100 µM

Task: Would you mind telling me what CC50 value was observed for O=C(C=Cc1ccc(F)cc1F)C=Cc1ccc(F)cc1F ?
Result: > 100 µM

Task: Would you mind telling me what CC50 value was observed for COc1cc(/C=C/C(=O)CC(=O)/C=C/c2ccc(O)c(OC)c2)ccc1O ?
Result: < 100 µM

---

- Test system: DU-145
- protocol_summary: cells
- details: Homo sapiens, DU-145, 48 h, read-out: Median Lethal Concentration (LC50)
quantity_kind: log10 CC50 (log10 of the value in µM)
Could you please treat all values as log10 of CC50 in µM?

Look over these answered cases.
[
  {
    "compound": "CC(=O)O.O=C1C(=Cc2ccccc2F)CNCC1=Cc1ccccc1F [EF24]",
    "log10 CC50": 0.73
  },
  {
    "compound": "OC(CCc1ccc(F)cc1F)CCc1ccc(F)cc1F [EF19, 1,5-Bis(2,4-difluorophenyl)-pentan-3-ol]",
    "log10 CC50": 1.75
  },
  {
    "compound": "O=C1C(=Cc2ccccc2O)CCCC1=Cc1ccccc1O [EF4]",
    "log10 CC50": 0.85
  },
  {
    "compound": "COc1cc(/C=C/C(=O)CC(=O)/C=C/c2ccc(O)c(OC)c2)ccc1O [Curcumin]",
    "log10 CC50": 1.80
  },
  {
    "compound": "O=C(C=Cc1ccc(F)cc1F)C=Cc1ccc(F)cc1F [EF9]",
    "log10 CC50": 1.46
  }
]

Task: Would you mind telling me what log10 CC50 value was observed for CC1(/C=C/c2ccccc2O)C=Cc2ccccc2O1 (stereo not drawn) [EF7] ?
Result: 1.74

---

- System: OVCAR-3
- protocol_summary: cells
- details: Homo sapiens, OVCAR-3, 48 h, read-out: Median Growth Inhibitory Concentration (GI50)
The entries below are paired with their reported log10(GI50).
Could you please treat all values as log10 of GI50 in µM?

Look over these answered cases.
[
  {
    "molecule": "OC(CCc1ccc(F)cc1F)CCc1ccc(F)cc1F [EF19, 1,5-Bis(2,4-difluorophenyl)-pentan-3-ol]",
    "log10(GI50)": 1.25
  },
  {
    "molecule": "COc1cc(/C=C/C(=O)CC(=O)/C=C/c2ccc(O)c(OC)c2)ccc1O [Curcumin]",
    "log10(GI50)": 0.80
  },
  {
    "molecule": "O=C1C(=Cc2ccccc2O)CCCC1=Cc1ccccc1O [EF4]",
    "log10(GI50)": 0.57
  },
  {
    "molecule": "CC(=O)O.O=C1C(=Cc2ccccc2F)CNCC1=Cc1ccccc1F [EF24]",
    "log10(GI50)": 0.04
  },
  {
    "molecule": "CC1(/C=C/c2ccccc2O)C=Cc2ccccc2O1 (stereo not drawn) [EF7]",
    "log10(GI50)": 1.19
  }
]

Next item in the queue.
Task: Would you mind telling me what log10(GI50) value was observed for O=C(C=Cc1ccc(F)cc1F)C=Cc1ccc(F)cc1F [EF9] ?
Result: 1.15
